# SYSTEM NAME: synthetic Aβ(1–42) fibrils (Homo sapiens)
# Sequence (P05067 672-713): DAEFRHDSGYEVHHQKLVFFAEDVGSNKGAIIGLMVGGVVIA
# METHOD SUMMARY: Displacement of 5 nM [3H]-1a
# Assay type: binding
pEC50: −log10 of the molar value.
RECORDED METRIC: pEC50

Known pEC50 results, listed for orientation:
{"MOLECULAR STRING": "O=C(O)c1cc(/N=N/c2ccc(-c3ccc(/N=N/c4ccc(O)c(C(=O)O)c4)cc3)cc2)ccc1O", "SYSTEM NAME": "synthetic Aβ(1–42) fibrils (Homo sapiens)", "pEC50": 6.05}
{"MOLECULAR STRING": "COc1cc(/C=C/c2ccc(N)cc2)ccc1/C=C/c1ccc(N)cc1", "SYSTEM NAME": "synthetic Aβ(1–42) fibrils (Homo sapiens)", "pEC50": 5.52}

A. Nc1c(/N=N/c2ccc(-c3ccc(/N=N/c4cc(S(=O)(=O)O)c5ccccc5c4N)cc3)cc2)cc(S(=O)(=O)O)c2ccccc12
B. Oc1ccc(/C=C/c2ccc(/C=C/c3ccc(O)cc3)c(Br)c2)cc1
C. O=C(O)c1cc(/C=C/c2ccc(/C=C/c3ccc(O)c(C(=O)O)c3)c(Br)c2)ccc1O
Order each entry by recorded pEC50, climbing from the minimum. Rank them, then answer with their labels in that order.
B, A, C
